Tested on: NCI-60 standardized human tumor cell line panel
Experimental Details: cells
Assay type: cell-based
Measurement Setup: MCF7; read-out: GI50
Readout Kind: GI50 (nM)
Give just the numeric value; nM need not be written.

Molecule	GI50 [nM]
COc1cc2cc(C(=O)N3CC(CCl)c4c3cc(OC(=O)N3CCN(C)C5CSSCC53)c3ccccc43)[nH]c2c(OC)c1OC (mixture of isomers) [Me-SS66C-CBI-TMI]	28
COc1cc2cc(C(=O)N3CC(CCl)c4c3cc(OC(=O)N3CCN(C)C5CSSCC53)c3ccccc43)[nH]c2c(OC)c1OC (mixture of isomers) [Me-SS66T-CBI-TMI]	5.2
COc1cc2cc(C(=O)N3C[C@@H](CCl)c4c3cc(OC(=O)N(CCC(=O)N3CCN(C)CC3)[C@H]3CCSSC3)c3ccccc43)[nH]c2c(OC)c1OC	35

Attention now shifts to the item below.
Would you kindly share the measured GI50 for COc1cc2cc(C(=O)N3C[C@@H](CCl)c4c3cc(OC(=O)N(CCC(=O)N3CCN(C)CC3)C3CCCCC3)c3ccccc43)[nH]c2c(OC)c1OC ?
320

----------
Tested on: panel of 140 standard cancer cell lines
Experimental Details: ProliFiler-140 cancer cell line screen (CellTiterGlo, 72 h)
Format: cell-based
Measurement Setup: Homo sapiens, HCT-15, HCT-15
Readout Kind: IC50
Reply with the number, then its unit.

Hi! What's the reported IC50 for COc1cc2cc(C(=O)N3C[C@@H](CCl)c4c3cc(OC(=O)N3CCN(C(=O)CCC(=O)N5CCN(C)CC5)[C@H]5CSSC[C@H]53)c3ccccc43)[nH]c2c(OC)c1OC [P-SS66C-CBI-TMI] on panel of 140 standard cancer cell lines?
140 nM

----------
System: panel of 140 standard cancer cell lines
Experimental Details: ProliFiler-140 cancer cell line screen (CellTiterGlo, 72 h)
Type: cell-based
Measurement Setup: Homo sapiens, HT-29, HT-29
Readout Kind: pIC50
Convention used: pIC50 is expressed as -log10 of the molar concentration.

Would you kindly share the measured pIC50 for COc1cc2cc(C(=O)N3C[C@@H](CCl)c4c3cc(OC(=O)N3CCN(C(=O)CCC(=O)N5CCN(C)CC5)[C@H]5CSSC[C@H]53)c3ccccc43)[nH]c2c(OC)c1OC [P-SS66C-CBI-TMI] ?
6.96

----------
Test system: panel of 140 standard cancer cell lines
Experimental Details: ProliFiler-140 cancer cell line screen (CellTiterGlo, 72 h)
Assay type: cell-based
Measurement Setup: M07e (Blood); listed as Dox; read-out: IC50 [M] (ProliFiler-140)
Readout Kind: IC50 (M)
Give just the numeric value; M need not be written.

Hi! What's the reported IC50 for COc1cccc2c1C(=O)c1c(O)c3c(c(O)c1C2=O)C[C@@](O)(C(=O)CO)C[C@@H]3O[C@H]1C[C@H](N)[C@H](O)[C@H](C)O1 [doxorubicin, reference compound] on panel of 140 standard cancer cell lines?
4.6e-08

----------
Tested on: NCI-60 standardized human tumor cell line panel
Experimental Details: cells
Type: cell-based
Measurement Setup: PC-3; read-out: GI50
// reported GI50 for each item listed
Give just the numeric value; nM need not be written.

# count of solved cases: 4
Compound	Study System	Reading
COc1cc2cc(C(=O)N3C[C@@H](CCl)c4c3cc(OC(=O)N(CCC(=O)N3CCN(C)CC3)C3CCCCC3)c3ccccc43)[nH]c2c(OC)c1OC [P-CC60-CBI-TMI]	NCI-60 standardized human tumor cell line panel	3100
COc1cc2cc(C(=O)N3CC(CCl)c4c3cc(OC(=O)N3CCN(C)C5CSSCC53)c3ccccc43)[nH]c2c(OC)c1OC (mixture of isomers) [Me-SS66C-CBI-TMI]	NCI-60 standardized human tumor cell line panel	360
COc1cc2cc(C(=O)N3C[C@@H](CCl)c4c3cc(OC(=O)N(CCC(=O)N3CCN(C)CC3)[C@H]3CCSSC3)c3ccccc43)[nH]c2c(OC)c1OC [P-SS60-CBI-TMI]	NCI-60 standardized human tumor cell line panel	720
COc1cc2cc(C(=O)N3C[C@@H](CCl)c4c3cc(OC(=O)N(C)CCSSCCN3CCOCC3)c3ccccc43)[nH]c2c(OC)c1OC [SS00M-CBI-TMI]	NCI-60 standardized human tumor cell line panel	25

Would you kindly share the measured GI50 for COc1cc2cc(C(=O)N3CC(CCl)c4c3cc(OC(=O)N3CCN(C)C5CSSCC53)c3ccccc43)[nH]c2c(OC)c1OC (mixture of isomers) [Me-SS66T-CBI-TMI] ?
25

----------
Tested on: panel of 140 standard cancer cell lines
Experimental Details: ProliFiler-140 cancer cell line screen (CellTiterGlo, 72 h)
Assay type: cell-based
Measurement Setup: read-out: IC50 [M] (ProliFiler-140); NCI-H1703 (Lung)
Readout Kind: IC50 (M)
Give just the numeric value; M need not be written.

Would you kindly share the measured IC50 for COc1cc2cc(C(=O)N3C[C@@H](CCl)c4c3cc(OC(=O)N3CCN(C(=O)CCC(=O)N5CCN(C)CC5)[C@H]5CSSC[C@H]53)c3ccccc43)[nH]c2c(OC)c1OC [P-SS66C-CBI-TMI] ?
5.11e-08

----------
Tested on: panel of 140 standard cancer cell lines
Experimental Details: ProliFiler-140 cancer cell line screen (CellTiterGlo, 72 h)
Assay type: cell-based
Measurement Setup: read-out: IC50 [M] (ProliFiler-140); Saos-2 EC (Bone)
Readout Kind: IC50 (M)
Give just the numeric value; M need not be written.

Hi! What's the reported IC50 for COc1cc2cc(C(=O)N3C[C@@H](CCl)c4c3cc(OC(=O)N3CCN(C(=O)CCC(=O)N5CCN(C)CC5)[C@H]5CSSC[C@H]53)c3ccccc43)[nH]c2c(OC)c1OC [P-SS66C-CBI-TMI] on panel of 140 standard cancer cell lines?
6.6e-08

----------
System: panel of 140 standard cancer cell lines
Experimental Details: ProliFiler-140 cancer cell line screen (CellTiterGlo, 72 h)
Type: cell-based
Measurement Setup: Homo sapiens, NCI-H1703, read-out: IC50 [M] (ProliFiler-140), NCI-H1703 (Lung)
Readout Kind: IC50 (M)
Give just the numeric value; M need not be written.

Would you kindly share the measured IC50 for COc1cc2cc(C(=O)N3C[C@@H](CCl)c4c3cc(OC(=O)N3CCN(C(=O)CCC(=O)N5CCN(C)CC5)[C@H]5CSSC[C@H]53)c3ccccc43)[nH]c2c(OC)c1OC [P-SS66C-CBI-TMI] ?
5.1e-08

----------
Tested on: panel of 140 standard cancer cell lines
Experimental Details: ProliFiler-140 cancer cell line screen (CellTiterGlo, 72 h)
Type: cell-based
Measurement Setup: MDA-MB-468 (Breast); read-out: IC50 [M] (ProliFiler-140)
Readout Kind: IC50 (M)
Give just the numeric value; M need not be written.

Would you kindly share the measured IC50 for COc1cc2cc(C(=O)N3C[C@@H](CCl)c4c3cc(OC(=O)N(CCC(=O)N3CCN(C)CC3)[C@H]3CCSSC3)c3ccccc43)[nH]c2c(OC)c1OC ?
3.1e-08

----------
Test system: panel of 140 standard cancer cell lines
Experimental Details: ProliFiler-140 cancer cell line screen (CellTiterGlo, 72 h)
Format: cell-based
Measurement Setup: MOLT-4; read-out: IC50
Readout Kind: IC50 (nM)
Give just the numeric value; nM need not be written.

Would you kindly share the measured IC50 for COc1cc2cc(C(=O)N3C[C@@H](CCl)c4c3cc(OC(=O)N(CCC(=O)N3CCN(C)CC3)[C@H]3CCSSC3)c3ccccc43)[nH]c2c(OC)c1OC ?
13

----------
Tested on: panel of 140 standard cancer cell lines
Experimental Details: ProliFiler-140 cancer cell line screen (CellTiterGlo, 72 h)
Assay type: cell-based
Measurement Setup: Homo sapiens, LNCaP, read-out: IC50 [M] (ProliFiler-140), LnCap (Prostate)
Readout Kind: IC50 (M)
Give just the numeric value; M need not be written.

Would you kindly share the measured IC50 for COc1cc2cc(C(=O)N3C[C@@H](CCl)c4c3cc(OC(=O)N3CCN(C(=O)CCC(=O)N5CCN(C)CC5)[C@H]5CSSC[C@H]53)c3ccccc43)[nH]c2c(OC)c1OC [P-SS66C-CBI-TMI] ?
2.7e-08

----------
Test system: NCI-60 standardized human tumor cell line panel
Experimental Details: cells
Assay type: cell-based
Measurement Setup: SK-OV-3; AZI sheet; read-out: GI50
Lab note: compare GI50 with 300 nM, writing true if less and false if equal or more.

Compound	Study System	Label Value
CN1CCN(C(=O)Oc2cc3c(c4ccccc24)C(CCl)CN3C(=O)c2cc3cc(OCCCN4CCC4)ccc3[nH]2)C2CSSCC21 (mixture of isomers) [Me-SS66T-CBI-AZI]	NCI-60 standardized human tumor cell line panel	true

Hello, I'm reviewing records and need to know if GI50 of O=C(c1cc2cc(OCCCN3CCC3)ccc2[nH]1)N1C[C@@H](CCl)c2c1cc(OCc1ccccc1)c1ccccc21 [OBn-CBI-AZI] is below 300 nM. Could you check?
false

Hello, I'm reviewing records and need to know if GI50 of CN(CCSSCCN1CCOCC1)C(=O)Oc1cc2c(c3ccccc13)[C@H](CCl)CN2C(=O)c1cc2cc(OCCCN3CCC3)ccc2[nH]1 [SS00M-CBI-AZI] is below 300 nM. Could you check?
true

Hello, I'm reviewing records and need to know if GI50 of CN1CCN(C(=O)CCN(C(=O)Oc2cc3c(c4ccccc24)[C@H](CCl)CN3C(=O)c2cc3cc(OCCCN4CCC4)ccc3[nH]2)[C@H]2CCSSC2)CC1 [P-SS60-CBI-AZI] is below 300 nM. Could you check?
false

Hello, I'm reviewing records and need to know if GI50 of CN1CCN(C(=O)Oc2cc3c(c4ccccc24)C(CCl)CN3C(=O)c2cc3cc(OCCCN4CCC4)ccc3[nH]2)C2CSSCC21 (mixture of isomers) [Me-SS66C-CBI-AZI] is below 300 nM. Could you check?
true
